# target: Cytochrome P450 2C19 (Homo sapiens)
# Sequence (P33261 whole entry): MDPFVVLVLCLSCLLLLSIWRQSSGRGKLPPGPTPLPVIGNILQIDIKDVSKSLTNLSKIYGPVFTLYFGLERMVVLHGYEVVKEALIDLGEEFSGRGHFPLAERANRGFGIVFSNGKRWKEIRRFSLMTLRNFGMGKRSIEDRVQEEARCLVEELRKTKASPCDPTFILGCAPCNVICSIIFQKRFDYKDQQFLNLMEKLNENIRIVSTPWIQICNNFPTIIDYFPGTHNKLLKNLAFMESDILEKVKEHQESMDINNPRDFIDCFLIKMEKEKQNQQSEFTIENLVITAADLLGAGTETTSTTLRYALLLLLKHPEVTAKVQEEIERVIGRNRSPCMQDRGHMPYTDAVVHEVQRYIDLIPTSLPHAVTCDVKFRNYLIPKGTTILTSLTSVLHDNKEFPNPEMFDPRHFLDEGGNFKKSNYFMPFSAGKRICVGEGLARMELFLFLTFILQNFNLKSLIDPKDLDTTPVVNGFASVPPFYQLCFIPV
# assayOverview: Cytochrome panel assay with activity outcomes. Panel member name: p450-cyp2c19 Compounds with AC50 equal or less than 10 uM are considered active
# Assay type: functional
# testParameters: read-out: AC50
propertyName: AC50

compound=COc1ccc(-c2nnn(Cc3nc(N)nc(N4CCOCC4)n3)n2)cc1OC readoutvalue="35.5 µM (inconclusive)"
compound="O=C1CC(c2ccc3c(c2)OCO3)CN1 (configuration not stated)" readoutvalue="39.8 µM (inconclusive)"
compound=Cc1ccccc1NC(=O)OCc1cn(-c2ccc(Cl)cc2)nn1 readoutvalue="8.91 µM (inconclusive)"
compound=Cc1sc(N/N=C/c2cccnc2)nc1-c1ccccc1 readoutvalue="0.501 µM (inconclusive)"
compound="Cc1cc(C)cc(N(C(=O)C2CCCC2)C2C=CS(=O)(=O)C2)c1 (configuration not stated)" readoutvalue="17.8 µM (inconclusive)"
compound=CCCN1C2=NCCCN2c2ccccc21 readoutvalue="20 µM (inconclusive)"
compound=O=C(CSc1nc2ccccc2[nH]1)NCCN1CCCCC1 readoutvalue="22.4 µM (inconclusive)"
compound=COc1ccc(-c2nc3cnc(N4CCNCC4)nc3n(Cc3cccc(OC)c3)c2=O)cc1 readoutvalue="39.8 µM (inconclusive)"
compound="CCN(CC)C(=O)C1CC(=O)N(c2ccc(OC)cc2)C1c1ccc(OC)cc1 (configuration not stated)" readoutvalue="39.8 µM (inconclusive)"
compound=CO/N=C1/c2cc(OC)ccc2O[C@@H](c2cccc(OC)c2)[C@H]1O readoutvalue="3.98 µM (inconclusive)"
compound=Cc1cccc(N(C)S(=O)(=O)c2ccc3[nH]c(=O)c(=O)[nH]c3c2)c1 readoutvalue="20 µM (inconclusive)"
compound=Cc1cc(S(=O)(=O)NCCCN2CCOCC2)ccc1F readoutvalue="28.2 µM (inconclusive)"

* * *

In this section we review reported EC50 values for a set of compounds.
# target: RNA-binding protein pos-1 (Caenorhabditis elegans)
# Sequence (G5EF15 whole entry, the tested form may be a part): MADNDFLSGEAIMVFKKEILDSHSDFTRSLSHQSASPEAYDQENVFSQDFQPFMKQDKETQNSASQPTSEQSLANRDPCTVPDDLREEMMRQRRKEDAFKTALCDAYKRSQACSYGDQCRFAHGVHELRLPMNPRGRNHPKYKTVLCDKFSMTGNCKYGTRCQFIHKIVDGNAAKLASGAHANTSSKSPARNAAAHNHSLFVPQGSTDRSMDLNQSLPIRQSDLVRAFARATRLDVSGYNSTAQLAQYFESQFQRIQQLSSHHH
# assayOverview: disruptors of C. elegans POS-1 RNA interaction – biochemical, fluorescence polarization, dose response (AID 1964);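 further: purified POS-1 fused to maltose binding protein made in E. coli; potency of compounds blocking POS-1 binding to fluorescent RNA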
The source made the active and inactive calls.
propertyName: EC50

compound=NS(=O)(=O)c1ccc(N=Nc2cnc(O)c(O)c2)cc1 readoutvalue="5.41 µM (active)"
compound=CCc1ccc(/C=C2\SC(=S)N(CCCC(=O)Nc3ccccn3)C2=O)cc1 readoutvalue="27.1 µM (active)"
compound=Cc1ccc(N2C(=O)/C(=C/c3ccc(CN(CCC#N)S(C)(=O)=O)o3)C(=O)NC2=S)cc1 readoutvalue="> 300 µM (not active)"
compound="CCCC1Nc2ccc(C(=O)O)cc2C2C=CCC12 (stereo unspecified)" readoutvalue="23.8 µM (active)"
compound=Nc1nnc(C(=O)c2ccccc2N)s1 readoutvalue="14.7 µM (active)"
compound=Cc1ccc(S(=O)(=O)Nc2ccccc2F)cc1C(=O)NNC(=O)c1ccccc1O readoutvalue="149 µM (inconclusive)"
compound=Cn1cccc1/C=C1\C(=O)NC(=O)N(CCC2=CCCCC2)C1=O readoutvalue="230 µM (inconclusive)"
compound="CC(=O)N1CCc2c(sc(NC(=O)C3CCCN3S(=O)(=O)c3cccs3)c2C(N)=O)C1 (stereo unspecified)" readoutvalue="10.2 µM (active)"
compound=CCc1c(C(=O)NNC(=S)Nc2ccc(S(=O)(=O)Nc3ncccn3)cc2)csc1C readoutvalue="> 300 µM (not active)"
compound=CC(=O)C1=C(c2ccccc2)N(C(C)=O)n2c(C)nnc2S1 readoutvalue="191 µM (active)"
compound=COC(=O)c1ccc(-n2c(CCC(=O)O)ccc2-c2ccc(C)cc2)cc1 readoutvalue="> 300 µM (not active)"

* * *

In this section we review reported EC50 values for a set of molecules.
# Tested on: Streptococcus
# assayOverview: GAS UMAA2166 growth inhibition – luminescence, BacTiterGlo, counter-screen for streptokinase expression inhibitor project, dose response (AID 1915);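 further: potency for reduction of bacterial viability or growth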
# Format: functional, organism-based
The source made the active and inactive calls.
propertyName: EC50

molecule="COc1ccc(C2c3ccc(O)cc3Oc3ncn4nc(-c5ccncc5)nc4c32)cc1OC (centres undefined)" readoutvalue="27.9 µM (active)"
molecule="CC(NS(=O)(=O)/C=C/c1ccccc1)C(=O)O (centres undefined)" readoutvalue="> 150 µM (not active)"
molecule=O=C(/C=C/c1cccs1)NC(=S)NNC(=O)Cc1cccs1 readoutvalue="5.99 µM (active)"
molecule=Cc1ccc(CN=C(S)Nc2ccc(NS(=O)(=O)c3ccc(C)cc3)cc2)cc1 readoutvalue="17.6 µM (active)"

* * *

In this section we review reported IC50 values for a set of molecules.
# target: DNA dC->dU-editing enzyme APOBEC-3G (Homo sapiens, UniProt Q9HC16);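 further: Dose-response counterscreen measuring inhibition of APOBEC3G DNA deaminase activity, run while confirming APOBEC3A inhibitors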
# Sequence (Q9HC16 whole entry): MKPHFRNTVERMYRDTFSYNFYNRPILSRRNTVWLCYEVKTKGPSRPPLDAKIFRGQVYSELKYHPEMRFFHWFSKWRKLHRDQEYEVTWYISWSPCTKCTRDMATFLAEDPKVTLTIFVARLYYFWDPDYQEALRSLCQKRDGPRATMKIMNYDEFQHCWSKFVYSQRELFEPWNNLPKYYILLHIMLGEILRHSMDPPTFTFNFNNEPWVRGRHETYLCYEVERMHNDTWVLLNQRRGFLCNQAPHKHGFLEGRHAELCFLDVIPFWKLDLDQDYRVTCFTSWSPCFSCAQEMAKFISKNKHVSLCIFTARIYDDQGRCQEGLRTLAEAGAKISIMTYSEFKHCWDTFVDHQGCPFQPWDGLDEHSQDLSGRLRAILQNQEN
# Type: functional
Active and inactive are the calls of the source.
propertyName: IC50

smilesrepresentation=CCn1c2c(c(C)[n+]1CC)C(=O)CC(C)(C)C2 target="DNA dC->dU-editing enzyme APOBEC-3G (Homo sapiens, UniProt Q9HC16)" readoutvalue="3.74 µM (active)"
smilesrepresentation=COc1cccc(C(=O)N/N=C/c2ccc(Oc3ccc([N+](=O)[O-])cn3)c(OC)c2)c1 target="DNA dC->dU-editing enzyme APOBEC-3G (Homo sapiens, UniProt Q9HC16)" readoutvalue="3.84 µM (active)"
smilesrepresentation=CCCCCCNC(=O)c1cc(-c2ccco2)nc2ccccc12 target="DNA dC->dU-editing enzyme APOBEC-3G (Homo sapiens, UniProt Q9HC16)" readoutvalue="16 µM (active)"
smilesrepresentation=C[N+](C)(C)CCOC(=O)C1(c2ccccc2)CCCC1 target="DNA dC->dU-editing enzyme APOBEC-3G (Homo sapiens, UniProt Q9HC16)" readoutvalue="1.12 µM (active)"

* * *

# target: Zinc finger protein mex-5 (Caenorhabditis elegans)
# Sequence (Q9XUB2 whole entry): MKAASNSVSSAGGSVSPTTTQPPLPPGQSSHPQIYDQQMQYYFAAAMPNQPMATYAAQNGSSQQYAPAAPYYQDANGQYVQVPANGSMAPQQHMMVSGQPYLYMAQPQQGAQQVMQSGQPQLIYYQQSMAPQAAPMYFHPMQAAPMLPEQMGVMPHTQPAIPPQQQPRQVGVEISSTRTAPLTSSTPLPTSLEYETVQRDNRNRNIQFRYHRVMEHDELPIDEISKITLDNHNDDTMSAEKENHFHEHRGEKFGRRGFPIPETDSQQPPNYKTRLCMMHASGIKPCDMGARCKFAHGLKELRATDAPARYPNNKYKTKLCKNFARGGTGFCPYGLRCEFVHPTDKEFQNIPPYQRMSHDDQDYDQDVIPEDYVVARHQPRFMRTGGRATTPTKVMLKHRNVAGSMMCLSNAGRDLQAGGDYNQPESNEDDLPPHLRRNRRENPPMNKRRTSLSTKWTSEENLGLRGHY
# assayOverview: potency of MEX-5 RNA-binding blockers – biochemical, C. elegans, fluorescence polarization, dose response (AID 1960)
Activity calls are given as the source filed them.
propertyName: EC50

molecule=NS(=O)(=O)c1ccc(N=Nc2cnc(O)c(O)c2)cc1 target="Zinc finger protein mex-5 (Caenorhabditis elegans)" readoutvalue="0.421 µM (active)"
molecule=CCn1cc(C=C2C(=O)N(C)C(=O)N(C)C2=O)c2ccccc21 target="Zinc finger protein mex-5 (Caenorhabditis elegans)" readoutvalue="> 300 µM (inconclusive)"
molecule=CCc1c(C(=O)NNC(=S)Nc2ccc(S(=O)(=O)Nc3ncccn3)cc2)csc1C target="Zinc finger protein mex-5 (Caenorhabditis elegans)" readoutvalue="12.5 µM (active)"
molecule=Cn1cccc1/C=C1\C(=O)NC(=O)N(CCC2=CCCCC2)C1=O target="Zinc finger protein mex-5 (Caenorhabditis elegans)" readoutvalue="35.6 µM (inconclusive)"
molecule="CCCC1Nc2ccc(C(=O)O)cc2C2C=CCC12 (stereo unspecified)" target="Zinc finger protein mex-5 (Caenorhabditis elegans)" readoutvalue="14.5 µM (active)"
molecule=COC(=O)c1ccc(-n2c(CCC(=O)O)ccc2-c2ccc(C)cc2)cc1 target="Zinc finger protein mex-5 (Caenorhabditis elegans)" readoutvalue="> 300 µM (not active)"

* * *

# target: FAD-linked sulfhydryl oxidase ALR (Homo sapiens)
# Sequence (P55789 whole entry): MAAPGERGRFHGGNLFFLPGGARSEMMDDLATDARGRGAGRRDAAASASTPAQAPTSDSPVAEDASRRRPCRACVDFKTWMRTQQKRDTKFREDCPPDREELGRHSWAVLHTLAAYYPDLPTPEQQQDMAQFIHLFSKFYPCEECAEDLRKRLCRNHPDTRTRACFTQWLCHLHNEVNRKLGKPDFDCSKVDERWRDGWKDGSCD
# assayOverview: ALR-catalysed DTT oxidation blockers – biochemical, H2O2 detection, luminescence, cherry-pick, dose response (AID 493248)
Calls of active or inactive are those of the source.
In this section we review reported AC50 values for a set of compounds.
propertyName: AC50

compound=c1ccc(NNC2=NCCCCC2)cc1 propertyname=AC50 readoutvalue="596 nM (active)"
compound=CCCn1c(NCc2ccc3c(c2)OCO3)nc2ccccc21 propertyname=AC50 readoutvalue="18900 nM (active)"
compound="CC(C)(C)n1nnnc1C(c1ccncc1)N1CCN(c2ccc(O)cc2)CC1 (configuration not stated)" propertyname=AC50 readoutvalue="3480 nM (active)"
compound=Nc1c(-c2ccccc2)cnn1-c1cccc([N+](=O)[O-])c1 propertyname=AC50 readoutvalue="125 nM (active)"
compound=O=[N+]([O-])c1cccc(-c2nnc(S)n2-c2ccc(Br)cc2)c1 propertyname=AC50 readoutvalue="3630 nM (active)"
compound=Cc1noc(C)c1S(=O)(=O)NCCN1CCN(c2ccccc2)CC1 propertyname=AC50 readoutvalue="3330 nM (active)"
compound=CNCCc1ccc(O)c(O)c1 propertyname=AC50 readoutvalue="4110 nM (active)"
compound=CN(C)c1ccc2c3c(ccc(N(C)C)c13)C(=O)OC2 propertyname=AC50 readoutvalue="8400 nM (active)"
compound=Sc1nc(-c2ccccc2)c[nH]1 propertyname=AC50 readoutvalue="904 nM (active)"
compound="CCN(CCNC(=O)C1CC(=O)N(CCc2ccccc2)C1)c1ccccc1 (configuration not stated)" propertyname=AC50 readoutvalue="288 nM (active)"
compound=O=C(NCCCN1CCCC1)c1ccc2c(Cl)c3c(nc2c1)CCCC3 propertyname=AC50 readoutvalue="10 nM (active)"
compound=Nc1nc(C2CC2)c(Sc2sc(N)nc2C2CC2)s1 propertyname=AC50 readoutvalue="511 nM (active)"

* * *

# target: G-protein coupled receptor 55 (Homo sapiens, UniProt Q9Y2T6);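 further: antagonism of response to 5 µM lysophosphatidylinositol agonist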
# Sequence (Q9Y2T6 whole entry): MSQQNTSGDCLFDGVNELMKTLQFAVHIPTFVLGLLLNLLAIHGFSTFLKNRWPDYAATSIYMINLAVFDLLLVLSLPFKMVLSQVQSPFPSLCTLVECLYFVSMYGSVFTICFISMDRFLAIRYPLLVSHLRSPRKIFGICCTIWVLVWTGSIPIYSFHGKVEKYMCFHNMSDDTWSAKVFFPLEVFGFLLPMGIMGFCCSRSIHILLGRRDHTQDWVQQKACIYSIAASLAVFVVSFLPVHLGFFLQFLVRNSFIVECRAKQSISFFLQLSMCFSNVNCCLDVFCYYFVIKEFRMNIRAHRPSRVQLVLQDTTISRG
# assayOverview: SAR Analysis of Selective Antagonists of GPR55 using an Image-Based Assay - Set 4. [Related pubchem assays (depositor defined):AID2013, AID2026]
# Assay type: functional
Active and inactive are the calls of the source.
propertyName: IC50

smilesrepresentation=CCN(CC)S(=O)(=O)c1ccc(NC(=O)c2cc(-c3ccccc3)nc3ccccc23)cc1 readoutvalue="> 32 µM (inactive)"
smilesrepresentation=Cc1ccc(-c2cc(C(=O)Nc3ccc(S(=O)(=O)Nc4cc(C)on4)cc3)c3ccccc3n2)c(C)c1 readoutvalue="> 32 µM (inactive)"
smilesrepresentation=Cc1nc(N2CCN(C(=O)c3ccc4c(c3)OCCO4)CC2)c2c3c(sc2n1)CCCC3 readoutvalue="21.4 µM (inactive)"
smilesrepresentation=CCOC(=O)c1cc2c(=O)n3ccccc3nc2n(Cc2ccccc2)c1=N readoutvalue="> 32 µM (inactive)"
